- Experimental Target: Factor X, P00742
- Sequence (P00742 whole entry, looked up): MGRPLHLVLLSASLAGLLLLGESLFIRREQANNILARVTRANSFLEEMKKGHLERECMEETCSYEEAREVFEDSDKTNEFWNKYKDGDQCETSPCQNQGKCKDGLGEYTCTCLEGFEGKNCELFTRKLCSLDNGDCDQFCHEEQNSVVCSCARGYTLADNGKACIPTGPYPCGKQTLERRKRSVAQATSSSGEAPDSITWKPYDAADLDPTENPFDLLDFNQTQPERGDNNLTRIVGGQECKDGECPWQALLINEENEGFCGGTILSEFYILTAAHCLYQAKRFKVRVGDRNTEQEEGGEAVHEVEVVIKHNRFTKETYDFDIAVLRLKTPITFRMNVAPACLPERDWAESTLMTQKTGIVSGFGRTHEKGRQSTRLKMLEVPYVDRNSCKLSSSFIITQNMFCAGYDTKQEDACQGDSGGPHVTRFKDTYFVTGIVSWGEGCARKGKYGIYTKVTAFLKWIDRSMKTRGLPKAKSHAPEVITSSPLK
Items are presented alongside their recorded KM (Catalytic activity of FIXa variants).
Parameter Measured: KM (Catalytic activity of FIXa variants) (µM)

Protein | Unit Text | Numeric Value
FIXa-D104N/K106S/R318Y/R338E/E410N (protein) chain 1: YNSGKLEEFVQGNLERECMEEKCSFEEAREVFENTERTTEFWKQYVDGDQCESNPCLNGGSCKDDINSYECWCPFGFEGKNCELDVTCNIKNGRCEQFCKNSANNSVVCSCTEGYRLAENQKSCEPAVPFPCGRVSVSQTSKLTR chain 2: VVGGEDAKPGQFPWQVVLNGKVDAFCGGSIVNEKWIVTAAHCVETGVKITVVAGEHNIEETEHTEQKRNVIRIIPHHNYNAAINKYNHDIALLELDEPLVLNSYVTPICIADKEYTNIFLKFGSGYVSGWGRVFHKGYSALVLQYLRVPLVDRATCLESTKFTIYNNMFCAGFHEGGRDSCQGDSGGPHVTEVEGTSFLTGIISWGEECAMKGKYGIYTKVSRYVNWIKNKTKLT | µM | 0.0189
FIXa-R318Y/R338E/R403E/E410N (protein) chain 1: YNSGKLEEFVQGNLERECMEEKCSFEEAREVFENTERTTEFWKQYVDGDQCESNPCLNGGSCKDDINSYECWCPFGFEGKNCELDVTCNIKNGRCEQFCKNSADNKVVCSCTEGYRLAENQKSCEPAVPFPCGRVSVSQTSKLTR chain 2: VVGGEDAKPGQFPWQVVLNGKVDAFCGGSIVNEKWIVTAAHCVETGVKITVVAGEHNIEETEHTEQKRNVIRIIPHHNYNAAINKYNHDIALLELDEPLVLNSYVTPICIADKEYTNIFLKFGSGYVSGWGRVFHKGYSALVLQYLRVPLVDRATCLESTKFTIYNNMFCAGFHEGGRDSCQGDSGGPHVTEVEGTSFLTGIISWGEECAMKGKYGIYTKVSEYVNWIKNKTKLT | µM | 0.0455
